Source: patent US20250277208A1

# Study Target: IL-6 (Homo sapiens)
# Construct: purchased R&D Systems BT7270B
# Procedure Details: Biacore surface plasmon resonance binding of peptides to immobilised IL-6
# Experimental Setup: Table 2; termini protected
Measured Property: affinity compared with the parent sequence, in words

Substance | Test Value
Ac-FAFRDLLRMMCHIVG-NH2 [Peptide 75, FAFRDLLRMMCHIVG] | not improved
Ac-SVRDLLRRMKHIVG-NH2 [Peptide 65, SVRDLLRRMKHIVG] | slightly better affinity
Ac-FSFRDLLRMMCHIVG-NH2 [Peptide 80, FSFRDLLRMMCHIVG] | not improved
Ac-SVRDLLRRMCVIVG-NH2 [Peptide 66, SVRDLLRRMCVIVG] | slightly better affinity

====

# Study Target: IL-6 (Homo sapiens, UniProt P05231)
# Construct: purchased R&D Systems BT7270B
# Procedure Details: Biacore surface plasmon resonance binding of peptides to immobilised IL-6

Substance | binding to IL-6, in words
SVKDLQHGLRHVVG [Peptide C1, control peptide homologous to peptide 9, devoid of any mutations; two unmutated fragments of IL-6R, reference compound] | no binding
SVRDLLRRMCHCVG [Peptide 67] | no binding

====

# Study Target: IL-6 (Homo sapiens)
# Construct: purchased R&D Systems BT7270B
# Procedure Details: Biacore surface plasmon resonance binding of peptides to immobilised IL-6
# Experimental Setup: Table 1; N and C termini not protected; cells printed in μM; read-out: KD (nM) P < 0.05
Ends that are not written are not given here.
Measured Property: Kd

## Input Can you share its Kd? I mean this sequence: SVRDLHKMMCHIVG [Peptide 25, SVRDLHKMMCHIVG]
## Output > 10 µM

## Input # iterate: SVRDLLRMFCHIVG [Peptide 23, SVRDLLRMFCHIVG]
## Output > 10 µM

## Input Cool, now SVRDLLHGRCHIVG [Peptide 40, SVRDLLHGRCHIVG]
## Output > 10 µM

====

# Study Target: IL-6 (Homo sapiens)
# Construct: purchased R&D Systems BT7270B
# Procedure Details: Biacore surface plasmon resonance binding of peptides to immobilised IL-6
# Experimental Setup: termini protected (acetylated, amidated); read-out: KD
Would you mind telling me the reported Kd of each entry?
Please give a number only; it is taken to be in nM.

## Input Name the reported Kd value associated with the substance Ac-FAFRDLIRMMKVCVG-NH2 [Peptide 79, FAFRDLIRMMKVCVG]
## Output 247

## Input Then what about the substance Ac-ATIRDLIRMMKVCVG-NH2 [Peptide 82, ATIRDLIRMMKVCVG] ?
## Output 108

## Input Now the same for Ac-FSFRDLLRRMCHIVG-NH2 [Peptide 72, FSFRDLLRRMCHIVG]
## Output 27

## Input How about this substance: Ac-ATIRDLIRMMKVIVG-NH2 [Peptide 83, ATIRDLIRMMKVIVG]
## Output 563
